System: Hepatotoxicity
Assign HepSE_cholelithiasis to each entry below.

Query string: GET /values?readout=HepSE_cholelithiasis&item= C[C@]12C=CC(=O)C=C1CC[C@@H]1[C@@H]2C(=O)C[C@@]2(C)[C@H]1CC[C@]2(O)C(=O)CO
Result string: 0

Query string: GET /values?readout=HepSE_cholelithiasis&item= CC#C[C@]1(O)CC[C@H]2[C@@H]3CCc4cc(O)ccc4[C@H]3CC[C@@]21C
Result string: 0

Query string: GET /values?readout=HepSE_cholelithiasis&item= CN(C)CCOC(=O)C(c1ccccc1)C1(O)CCCC1 (centres undefined) [CYCLOPENTOLATE]
Result string: 0

Query string: GET /values?readout=HepSE_cholelithiasis&item= C[C@H](CCC(=O)O)[C@H]1CC[C@H]2[C@@H]3[C@@H](O)C[C@@H]4C[C@H](O)CC[C@]4(C)[C@H]3CC[C@]12C
Result string: 0

Query string: GET /values?readout=HepSE_cholelithiasis&item= NS(=O)(=O)Cc1noc2ccccc12 [ZONISAMIDE]
Result string: 1

Query string: GET /values?readout=HepSE_cholelithiasis&item= [Ca+2].[H-].[H-]
Result string: 0

Query string: GET /values?readout=HepSE_cholelithiasis&item= CNC1=Nc2ccc(Cl)cc2C(c2ccccc2)=[N+]([O-])C1 [CHLORDIAZEPOXIDE]
Result string: 0

Query string: GET /values?readout=HepSE_cholelithiasis&item= N[C@@H](C(=O)N[C@@H]1C(=O)N2C(C(=O)O)=C(Cl)CC[C@H]12)c1ccccc1 [LORACARBEF ANHYDROUS]
Result string: 0

Query string: GET /values?readout=HepSE_cholelithiasis&item= C=CCC1(C(C)C#CCC)C(=O)N=C(O)N(C)C1=O (centres undefined)
Result string: 0

---

Assign HepSE_hepatic failure to each entry below.
Write the value as a bare number.

Query string: What value of HepSE_hepatic failure on Hepatotoxicity does C=CC[C@@H]1/C=C(\C)C[C@H](C)C[C@H](OC)[C@H]2O[C@@](O)(C(=O)C(=O)N3CCCC[C@H]3C(=O)O[C@H](/C(C)=C/[C@@H]3CC[C@@H](O)[C@H](OC)C3)[C@H](C)[C@@H](O)CC1=O)[C@H](C)C[C@@H]2OC [TACROLIMUS ANHYDROUS] have?
Result string: 0

Query string: What value of HepSE_hepatic failure on Hepatotoxicity does COCc1c(C(C)C)nc(C(C)C)c(/C=C/[C@@H](O)C[C@@H](O)CC(=O)O)c1-c1ccc(F)cc1 have?
Result string: 0

Query string: What value of HepSE_hepatic failure on Hepatotoxicity does Cc1cc(C2CCCCC2)n(O)c(=O)c1 have?
Result string: 0

Query string: What value of HepSE_hepatic failure on Hepatotoxicity does Cc1ccnc2c1NC(=O)c1cccnc1N2C1CC1 have?
Result string: 1

Query string: What value of HepSE_hepatic failure on Hepatotoxicity does N[C@@H](C(=O)N[C@@H]1C(=O)N2C(C(=O)O)=C(Cl)CS[C@H]12)c1ccccc1 [CEFACLOR ANHYDROUS] have?
Result string: 0

Query string: What value of HepSE_hepatic failure on Hepatotoxicity does O=[N+]([O-])OCC(CO[N+](=O)[O-])O[N+](=O)[O-] have?
Result string: 0

Query string: What value of HepSE_hepatic failure on Hepatotoxicity does N[C@@H]1CON=C1O have?
Result string: 0

Query string: What value of HepSE_hepatic failure on Hepatotoxicity does C[C@H]1C[C@H]2[C@@H]3CCC4=CC(=O)C=C[C@]4(C)[C@@]3(F)[C@@H](O)C[C@]2(C)[C@@]1(O)C(=O)CCl have?
Result string: 0

Query string: What value of HepSE_hepatic failure on Hepatotoxicity does CC12CC3CC(C)(C1)CC(N)(C3)C2 [MEMANTINE] have?
Result string: 1

Query string: What value of HepSE_hepatic failure on Hepatotoxicity does CC(=O)N1CCN(c2ccc(OCC3COC(Cn4ccnc4)(c4ccc(Cl)cc4Cl)O3)cc2)CC1 (configuration not stated) have?
Result string: 0

Query string: What value of HepSE_hepatic failure on Hepatotoxicity does C#CCN(C)[C@H](C)Cc1ccccc1 have?
Result string: 0

Query string: What value of HepSE_hepatic failure on Hepatotoxicity does COc1ccc(OC)c(C(O)CNC(=O)CN)c1 (configuration not stated) have?
Result string: 0

Query string: What value of HepSE_hepatic failure on Hepatotoxicity does CCN(CC)CCOC(=O)C1(C2CCCCC2)CCCCC1 have?
Result string: 0

Query string: What value of HepSE_hepatic failure on Hepatotoxicity does COc1c(N2CCNC(C)C2)c(F)cc2c(=O)c(C(=O)O)cn(C3CC3)c12 (configuration not stated) have?
Result string: 0

Query string: What value of HepSE_hepatic failure on Hepatotoxicity does CN1C(CCl)Nc2cc(Cl)c(S(N)(=O)=O)cc2S1(=O)=O (configuration not stated) [METHYCLOTHIAZIDE] have?
Result string: 0

Query string: What value of HepSE_hepatic failure on Hepatotoxicity does C[C@]12COC(=O)C[C@@H]1CC[C@@H]1[C@@H]2CC[C@@]2(C)[C@H]1CC[C@]2(C)O have?
Result string: 0

Query string: What value of HepSE_hepatic failure on Hepatotoxicity does CC(C)(S)[C@@H](N)C(=O)O have?
Result string: 1

---

These records show HepSE_hepatic necrosis for Hepatotoxicity.
Write the value as a bare number.

Query string: GET /values?readout=HepSE_hepatic necrosis&item= CC(N)C12CC3CC(CC(C3)C1)C2 (configuration not stated)
Result string: 0

Query string: GET /values?readout=HepSE_hepatic necrosis&item= CN(N=O)C(=O)N[C@@H](C=O)[C@@H](O)[C@H](O)[C@H](O)CO
Result string: 0

Query string: GET /values?readout=HepSE_hepatic necrosis&item= O=C(O)c1cc(=O)c2c(OCC(O)COc3cccc4oc(C(=O)O)cc(=O)c34)cccc2o1
Result string: 0

Query string: GET /values?readout=HepSE_hepatic necrosis&item= O=C(O[C@@H]1C[C@@H]2C[C@H]3C[C@H](C1)N2CC3=O)c1c[nH]c2ccccc12
Result string: 0

Query string: GET /values?readout=HepSE_hepatic necrosis&item= COc1ccc(C[C@@H]2c3cc(OC)c(OC)cc3CC[N@+]2(C)CCC(=O)OCCCCCOC(=O)CC[N@@+]2(C)CCc3cc(OC)c(OC)cc3[C@H]2Cc2ccc(OC)c(OC)c2)cc1OC
Result string: 0

Query string: GET /values?readout=HepSE_hepatic necrosis&item= S=P(N1CC1)(N1CC1)N1CC1
Result string: 0

Query string: GET /values?readout=HepSE_hepatic necrosis&item= COc1c2occc2cc2ccc(=O)oc12
Result string: 0

Query string: GET /values?readout=HepSE_hepatic necrosis&item= COCCCOc1cc(C[C@@H](C[C@H](N)[C@@H](O)C[C@H](C(=O)NCC(C)(C)C(N)=O)C(C)C)C(C)C)ccc1OC
Result string: 0

Query string: GET /values?readout=HepSE_hepatic necrosis&item= CNS(=O)(=O)Cc1ccc2[nH]cc(CCN(C)C)c2c1
Result string: 0

Query string: GET /values?readout=HepSE_hepatic necrosis&item= CCN(CC)CCCC(C)Nc1ccnc2cc(Cl)ccc12 (configuration not stated)
Result string: 0

Query string: GET /values?readout=HepSE_hepatic necrosis&item= Cc1oncc1C(=O)Nc1ccc(C(F)(F)F)cc1 [LEFLUNOMIDE]
Result string: 1

Query string: GET /values?readout=HepSE_hepatic necrosis&item= CCOC(=O)c1cncn1[C@H](C)c1ccccc1 [ETOMIDATE]
Result string: 0

Query string: GET /values?readout=HepSE_hepatic necrosis&item= CC(=O)Oc1c(C)cc(OCC(O)CNC(C)C)c(C)c1C (configuration not stated)
Result string: 0

Query string: GET /values?readout=HepSE_hepatic necrosis&item= CN1CC[C@]23c4c5ccc(O)c4O[C@H]2C(=O)CC[C@H]3[C@H]1C5 [HYDROMORPHONE]
Result string: 0

Query string: GET /values?readout=HepSE_hepatic necrosis&item= CC(C)CN(C[C@@H](OP(=O)(O)O)[C@H](Cc1ccccc1)NC(=O)O[C@H]1CCOC1)S(=O)(=O)c1ccc(N)cc1
Result string: 0

Query string: GET /values?readout=HepSE_hepatic necrosis&item= CC[C@H](C)[C@@H]1NC(=O)[C@H](Cc2ccc(O)cc2)NC(=O)[C@@H](N)CSSC[C@@H](C(=O)N2CCC[C@H]2C(=O)N[C@@H](CC(C)C)C(=O)NCC(N)=O)NC(=O)[C@H](CC(N)=O)NC(=O)[C@H](CCC(N)=O)NC1=O
Result string: 0

Query string: GET /values?readout=HepSE_hepatic necrosis&item= CN(C)CCC=C1c2ccccc2CCc2ccccc21
Result string: 0

---

System: Hepatotoxicity
Where a SMILES comes first, the peptide text is derived from it. Bridges are numbered along the chain shown (N, C = ends). [ ]: non-standard residue; d: D form. hArg = N=C(N)NCCCC[C@H](N)C(=O)O; Mpa = O=C(O)CCS
Hi! Just check whether HepSE_Combined Scores is below 1. Below gives Criterion met, equal or above gives Criterion not met.

Query string: State whether 1 exceeds HepSE_Combined Scores recorded for O=c1[nH]c2ccccc2n1CCCN1CCC(n2c(=O)[nH]c3cc(Cl)ccc32)CC1 .
Result string: Criterion met

Query string: State whether 1 exceeds HepSE_Combined Scores recorded for C#CCN(C)[C@H](C)Cc1ccccc1 .
Result string: Criterion not met

Query string: State whether 1 exceeds HepSE_Combined Scores recorded for Cc1nnc2n1-c1ccc(Cl)cc1C(c1ccccc1)=NC2 .
Result string: Criterion not met

Query string: State whether 1 exceeds HepSE_Combined Scores recorded for Cc1nnc2n1-c1ccc(Cl)cc1C(c1ccccc1Cl)=NC2 .
Result string: Criterion not met

Query string: State whether 1 exceeds HepSE_Combined Scores recorded for CC(C)CN(C[C@@H](O)[C@H](Cc1ccccc1)NC(=O)O[C@H]1CO[C@H]2OCC[C@H]21)S(=O)(=O)c1ccc(N)cc1 .
Result string: Criterion not met

Query string: State whether 1 exceeds HepSE_Combined Scores recorded for O=c1[nH]cc(F)c(=O)[nH]1 .
Result string: Criterion met

Query string: State whether 1 exceeds HepSE_Combined Scores recorded for CCN(Cc1ccncc1)C(=O)C(CO)c1ccccc1 (configuration not stated) [TROPICAMIDE] .
Result string: Criterion met

Query string: State whether 1 exceeds HepSE_Combined Scores recorded for Cn1c(=O)c2[nH]cnc2n(C)c1=O.O .
Result string: Criterion met

Query string: State whether 1 exceeds HepSE_Combined Scores recorded for N=C(N)NCCCC[C@@H]1NC(=O)CCSSC[C@@H](C(N)=O)NC(=O)[C@@H]2CCCN2C(=O)[C@H](Cc2c[nH]c3ccccc23)NC(=O)[C@H](CC(=O)O)NC(=O)CNC1=O [EPTIFIBATIDE] ([Mpa][hArg]GDWPC-NH2; disulfide 1-7) .
Result string: Criterion met

Query string: State whether 1 exceeds HepSE_Combined Scores recorded for COc1c(C)c2c(c(O)c1C/C=C(\C)CCC(=O)O)C(=O)OC2 .
Result string: Criterion not met

Query string: State whether 1 exceeds HepSE_Combined Scores recorded for Nc1nc2[nH]cc(CCc3ccc(C(=O)N[C@@H](CCC(=O)O)C(=O)O)cc3)c2c(=O)[nH]1 .
Result string: Criterion met

Query string: State whether 1 exceeds HepSE_Combined Scores recorded for CC(COc1ccccc1)NC(C)C(O)c1ccc(O)cc1 (configuration not stated) .
Result string: Criterion met

Query string: State whether 1 exceeds HepSE_Combined Scores recorded for O=C1CCc2ccc(OCCCCN3CCN(c4cccc(Cl)c4Cl)CC3)cc2N1 .
Result string: Criterion not met
